Examples of binders with documented Kd follow.
# experimentalSystem: T1, Heat-denatured BSA (bovine serum albumin autoclaved for 15 minutes) (bovine, UniProt P02769 25-607)
# T1 construct: also called heat-denatured BSA solution; reagent for detection
# T1 sequence (P02769 25-607 limits assumed): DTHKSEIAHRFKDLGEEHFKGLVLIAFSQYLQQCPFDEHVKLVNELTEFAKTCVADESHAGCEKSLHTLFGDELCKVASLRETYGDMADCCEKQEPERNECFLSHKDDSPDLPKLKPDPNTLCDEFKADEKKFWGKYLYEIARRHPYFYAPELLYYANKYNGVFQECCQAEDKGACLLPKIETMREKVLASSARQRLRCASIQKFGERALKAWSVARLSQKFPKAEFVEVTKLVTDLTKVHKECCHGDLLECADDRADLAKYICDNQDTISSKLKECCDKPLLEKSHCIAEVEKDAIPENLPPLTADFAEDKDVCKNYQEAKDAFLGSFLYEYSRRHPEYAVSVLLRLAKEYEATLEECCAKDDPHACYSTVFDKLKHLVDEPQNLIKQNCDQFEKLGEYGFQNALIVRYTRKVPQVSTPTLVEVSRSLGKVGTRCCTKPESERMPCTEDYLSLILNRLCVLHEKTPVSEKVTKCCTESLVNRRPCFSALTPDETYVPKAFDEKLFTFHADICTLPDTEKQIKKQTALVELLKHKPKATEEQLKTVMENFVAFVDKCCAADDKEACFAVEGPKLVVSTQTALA
# experimentalDetails: turbidity (OD550), Hill plot analysis
# Protocol: The Kd value and Hill coefficient were calculated for the respective samples.
Give a bare numeral; the unit µM is implied.

# binder, Kd, µM
rows = [
    ("HNLGHGHKHERDQGHGHQR (also called Kininogen (439-457); kininogen fragment) [fragment of kininogen (positions 439 to 457)]", 45),
]

# Kd (binder: GESRNRNVHSGSTFFKYYLQGAKIPKPEASFS (also called ITIH4 (611-642); ITIH4 fragment) [fragment of ITIH4 (positions 611 to 642)] ) is 70
